- test target: T1, CCL4 (Homo sapiens, UniProt P13236, biotin (sulfo-NHS-LC-biotin) in the Biacore and streptavidin-plate ELISA experiments; not biotinylated where coated directly)
- T1 construct: CCL4, human, recombinant chemokine from PeproTech
- T1 sequence (P13236 24-92): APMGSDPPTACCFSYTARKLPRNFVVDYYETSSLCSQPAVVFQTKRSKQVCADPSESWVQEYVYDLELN
- experimental details: SPR; Biacore 2000; biotinylated CCL3, CCL4, CCL5 immobilised on a streptavidin chip (~100 RU); Fabs flowed over at 500 pM to 1 µM; regeneration 10 mM glycine pH 1.5; triplicate; 1:1 Langmuir fit, murine and humanized 18V4F Fabs fit to a steady state model
- measurement conditions: both partners purified
measured endpoint: pKd
Scale: negative log10 of molar concentration, which is what pKd denotes.

Task: Read the entry 18V4F Fab variant d5 (Fab, V domains shown) VH: EVQLVESGGGLVQPGGSLRLSCAASGFSLTGYAMHWVRQAPGKGLEWVGVIWPGGGTNYNSALMSRFTISKDNSKNTVYLQMNSLRAEDTAVYYCARGPLITTEVSMDYWGQGTLVTVSS VL: SAEVTQPPSVSVSPGQTARITCSSNTPLRPYRNYANWVQQKPGQAPVGLIGGTNERPSGIPERFSGSSSGNTATLTISGAQAEDEADYYCALWYSNHWVFGGGTKLTVL and write its reported pKd.
Output: 7.80

The values you see were collected from paper PMC3422223.
